# target-desc: T1, Soluble CTLA-4-Ig (extracellular domain of human CTLA-4 fused to the Fc portion of human IgG1) (human, UniProt P16410 36-161, FITC-conjugated in the FACS binding assays)
# T1 construct: extracellular domain; bought from R&D Systems; also called sCTLA-4-Ig; CTLA-4-Ig Fc; not shown: Fc portion of human IgG1
# T1 sequence (P16410 36-161): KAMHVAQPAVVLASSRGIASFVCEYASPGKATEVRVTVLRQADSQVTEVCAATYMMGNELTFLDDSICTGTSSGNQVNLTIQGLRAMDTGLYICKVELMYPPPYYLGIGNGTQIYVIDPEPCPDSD
# assay-protocol: competitive FACS on transfected cells, FITC-sCTLA-4-Ig with biotin-sCD28-Ig; grade 0-2 of CTLA-4/CD28 ratio vs WT hB7-1
metric: Binding Score

Prompt: Param item = Round 2 CTLA4 A-H3-6 (ligand) GISQVTKSVKEMAALSCDYNISIDELARMRIYWQKDQQMVLSIISGQVEVWPEYKNRTFPDIINNLSLMILALRLSDKGTYTCVVQKNENGSFRREHLTSVTLSIRADFPVPSINDLGNPSPNIRRLICSTSGGFPRPHLYWLENGEELNATNTTLSQDPETKLYMISSELDFNMTSNHSFLCLVKYGDLTVSQTFYWQESKPTPSANQHLTWTIIIPVSAFGISVIIAVILTCLTCRNAAIRRQRRENEVEMQSCSQSP ; retrieve measured Binding Score.
Response: 1

Prompt: I have this binder here, Round 2 CTLA4BP 2x2-f3 (ligand) VIYVTKEVKEVATLSCGHNVSVEELAQTRIYWQKEKKMVLIMMSGDMNIWPEYKNRTIFDITNNLSIVILALRPSDEGTECVVLKYEKDAFKREHLAEVTLSVKADFPTPSISDFEIPPSNIRRIICSTSGGFPEPHLSWLENGEELNAINTTVSQDPGTELYTVSSKLDFNMTTNHSFMCLIKYGHLRVNQTFNWNTPKQEHFPDNLLPSWAITLISVNGIFVICCLTYCFAPRCRERRRNERLRRESVCPV , and I need its recorded Binding Score.
Response: 1

Prompt: Please give the measured Binding Score for this binder: Round 2 CTLA4BP-5x5-2e (ligand) VIHVTKEVKEVATLSCGLNVSVEELAQTRIHWQKEKKMVLTMMSGDMNIWPEYKNRTIFDITNNLSIVILALRPSDEGTYECVVLKYEKDAFKREHLAEVMLSVKADFPTPSISDFEIPPSNIRRIICSTSGGFPEPHLSWLENGEELNAINTTVSQDPETELYAVSSKLDFNMTTNHSFMCLIKYGHLRVNQTFNWNTPKQEHFPDNLLPSWAITLISVNGIFVICCLTYCFAPRCRERRRNETLRRESVRPV
Response: 2

All figures here come from patent US20100261660A1.
